# protocolDescription: in vitro
# Assay type: cell-based
# assaySetup: two human cell lines; preliminary result; read-out: CC50 against human cell lines (range)
quantityName: CC50

I'd like to know its CC50. The compound in question is O=C(Nc1cccnc1)N1CCC(Cc2cccc(Oc3ccc(C(F)(F)F)cn3)c2)CC1
16.9 to 21.7 µM

====

# key: entry, value: pKi
# tgt: Mtb PheRS (Mycobacterium tuberculosis, UniProt P9WFU3)
# Sequence (P9WFU3 whole entry): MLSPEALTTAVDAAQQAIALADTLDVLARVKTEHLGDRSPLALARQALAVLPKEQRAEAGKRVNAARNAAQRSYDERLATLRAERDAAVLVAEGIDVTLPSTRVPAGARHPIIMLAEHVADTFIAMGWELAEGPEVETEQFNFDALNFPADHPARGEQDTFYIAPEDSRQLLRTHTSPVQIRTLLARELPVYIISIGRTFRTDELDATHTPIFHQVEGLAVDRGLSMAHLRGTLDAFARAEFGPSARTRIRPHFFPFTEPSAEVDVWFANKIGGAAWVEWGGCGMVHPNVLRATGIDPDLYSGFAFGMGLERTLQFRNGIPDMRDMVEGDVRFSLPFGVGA
# Sequence (P9WFU1 whole entry, further chain): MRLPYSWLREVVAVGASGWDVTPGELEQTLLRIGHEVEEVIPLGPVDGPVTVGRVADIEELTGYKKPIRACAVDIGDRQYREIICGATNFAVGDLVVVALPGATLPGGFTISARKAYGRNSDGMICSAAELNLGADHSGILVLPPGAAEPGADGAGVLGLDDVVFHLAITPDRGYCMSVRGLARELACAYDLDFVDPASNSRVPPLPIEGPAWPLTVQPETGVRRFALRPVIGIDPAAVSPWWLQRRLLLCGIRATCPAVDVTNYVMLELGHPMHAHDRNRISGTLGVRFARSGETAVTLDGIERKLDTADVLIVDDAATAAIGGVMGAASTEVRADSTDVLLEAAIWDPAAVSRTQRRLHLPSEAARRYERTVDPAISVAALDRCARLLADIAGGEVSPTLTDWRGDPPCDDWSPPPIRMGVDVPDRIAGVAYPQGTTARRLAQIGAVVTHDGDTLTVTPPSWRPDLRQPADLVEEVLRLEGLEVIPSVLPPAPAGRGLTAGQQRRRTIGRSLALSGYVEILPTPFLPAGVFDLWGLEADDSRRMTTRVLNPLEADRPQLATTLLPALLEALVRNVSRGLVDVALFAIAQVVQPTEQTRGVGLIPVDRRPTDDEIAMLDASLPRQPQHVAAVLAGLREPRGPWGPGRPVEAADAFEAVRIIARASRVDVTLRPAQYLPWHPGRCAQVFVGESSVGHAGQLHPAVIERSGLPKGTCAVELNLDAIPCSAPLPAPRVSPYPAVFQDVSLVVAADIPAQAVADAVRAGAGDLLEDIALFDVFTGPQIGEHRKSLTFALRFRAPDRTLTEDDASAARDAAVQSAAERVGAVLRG
# protocolDescription: biochemical
# assaySetup: Ki in the Phe-competitive mode
# pKi: negative log10 of molar concentration; output just the value

> print(dat)
                                  cpdsmiles                                       tgt  valuemeasured
1  O=C(Nc1cccnc1)N1CCC(Cc2cccc(Oc3ccc(C(F)(F)F)cn3)c2)CC1  Mtb PheRS (Mycobacterium tuberculosis, UniProt P9WFU3)           5.77

Next, consider the following compound.
What pKi value was documented for this compound, O=C(Nc1cccc(S(=O)(=O)NCCc2c[nH]c3ccccc23)c1)Nc1nccs1 ?
6.70
